Hey, just so you know, these numbers are from patent US10759794B2.

- subject of test: UniProtKB Q9NPC2
- Sequence (Q9NPC2 whole entry): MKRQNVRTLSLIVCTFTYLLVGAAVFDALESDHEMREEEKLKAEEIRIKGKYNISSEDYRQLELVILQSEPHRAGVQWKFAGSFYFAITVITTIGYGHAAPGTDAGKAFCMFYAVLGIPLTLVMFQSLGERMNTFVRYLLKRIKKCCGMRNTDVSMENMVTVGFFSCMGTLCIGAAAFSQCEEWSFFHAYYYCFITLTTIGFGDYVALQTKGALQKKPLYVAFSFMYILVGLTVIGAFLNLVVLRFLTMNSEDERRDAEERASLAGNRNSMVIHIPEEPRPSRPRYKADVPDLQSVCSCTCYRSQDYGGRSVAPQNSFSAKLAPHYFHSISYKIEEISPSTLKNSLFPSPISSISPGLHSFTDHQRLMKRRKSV
- assay explanation: Inhibition of recombinant TASK-3 in stably transfected CHO cells (voltage-sensitive dye, FLIPR)
- Format: cell-based
- settings: depolarization induced by 40 mM potassium chloride, Table 2A
This section presents molecules with their documented IC50 values.
property name: IC50 (nM)

- molecule: "O=C(C1CCCCC1)N1CCN(Cc2c(-c3ccc(F)cc3)nc3ccccn23)CC1 [Example 8]"
  subject of test: "UniProtKB Q9NPC2"
  property name: "IC50"
  recorded result: 2500
- molecule: "COc1ccc(C)c(C(=O)N2CCN(Cc3c(-c4ccc(Cl)cc4)nc4ccccn34)CC2)n1 [Example 72]"
  subject of test: "UniProtKB Q9NPC2"
  property name: "IC50"
  recorded result: 3
- molecule: "COc1ccccc1C(=O)N1CCN(Cc2c(-c3ccc(Cl)cc3)nc3ccccn23)CC1 [Example 20]"
  subject of test: "UniProtKB Q9NPC2"
  property name: "IC50"
  recorded result: 52
- molecule: "Cc1ccccc1C(=O)N1CCN(Cc2c(-c3ccc(Br)cc3)nc3ccccn23)CC1 [Example 14]"
  subject of test: "UniProtKB Q9NPC2"
  property name: "IC50"
  recorded result: 310
- molecule: "O=C(c1cccc(OC2CCOCC2)n1)N1CCN(Cc2c(-c3ccc(Cl)cc3)nc3ccccn23)CC1 [Example 46]"
  subject of test: "UniProtKB Q9NPC2"
  property name: "IC50"
  recorded result: 240
- molecule: "COc1ccc(C)c(C(=O)N2CCN(Cc3c(-c4ccc(Br)cc4)nc4ccccn34)CC2)n1 [Example 74]"
  subject of test: "UniProtKB Q9NPC2"
  property name: "IC50"
  recorded result: 9.1
- molecule: "O=C(c1cccc(OC(F)F)n1)N1CCN(Cc2c(-c3ccc(Cl)cc3)nc3ccccn23)CC1 [Example 44]"
  subject of test: "UniProtKB Q9NPC2"
  property name: "IC50"
  recorded result: 17
- molecule: "COc1ccc(C)c(C(=O)N2CCN(Cc3c(-c4ccc(C#N)cc4)nc4ccccn34)CC2)n1 [Example 71]"
  subject of test: "UniProtKB Q9NPC2"
  property name: "IC50"
  recorded result: 16
- molecule: "COc1ccccc1C(=O)N1CCN(Cc2c(-c3ccc(C)cc3)nc3ccccn23)CC1 [Example 58]"
  subject of test: "UniProtKB Q9NPC2"
  property name: "IC50"
  recorded result: 1900
